As a worked illustration, we turn to AC50 data collected for Neuronal acetylcholine receptor subunit alpha-4 (Homo sapiens, UniProt P43681).

In the examples that follow, each entry is paired with its recorded AC50.
>>> value("O=c1oc2ccccc2c(O)c1Cc1c(O)c2ccccc2oc1=O")
"> 10 µM"
>>> value("CC[C@@H](CO)NC(=O)[C@@H]1C=C2c3cccc4[nH]cc(c34)C[C@H]2N(C)C1")
"> 30 µM"
>>> value("COc1ccc2c(c1)[C@]13CCCC[C@@H]1[C@H](C2)N(C)CC3")
"> 10 µM"

Task: Retrieve AC50 on Neuronal acetylcholine receptor subunit alpha-4 (Homo sapiens, UniProt P43681); query `CO/N=C(\C(=O)N[C@@H]1C(=O)N2C(C(=O)O)=C(COC(N)=O)CS[C@H]12)c1ccco1`
Sequence (P43681 whole entry): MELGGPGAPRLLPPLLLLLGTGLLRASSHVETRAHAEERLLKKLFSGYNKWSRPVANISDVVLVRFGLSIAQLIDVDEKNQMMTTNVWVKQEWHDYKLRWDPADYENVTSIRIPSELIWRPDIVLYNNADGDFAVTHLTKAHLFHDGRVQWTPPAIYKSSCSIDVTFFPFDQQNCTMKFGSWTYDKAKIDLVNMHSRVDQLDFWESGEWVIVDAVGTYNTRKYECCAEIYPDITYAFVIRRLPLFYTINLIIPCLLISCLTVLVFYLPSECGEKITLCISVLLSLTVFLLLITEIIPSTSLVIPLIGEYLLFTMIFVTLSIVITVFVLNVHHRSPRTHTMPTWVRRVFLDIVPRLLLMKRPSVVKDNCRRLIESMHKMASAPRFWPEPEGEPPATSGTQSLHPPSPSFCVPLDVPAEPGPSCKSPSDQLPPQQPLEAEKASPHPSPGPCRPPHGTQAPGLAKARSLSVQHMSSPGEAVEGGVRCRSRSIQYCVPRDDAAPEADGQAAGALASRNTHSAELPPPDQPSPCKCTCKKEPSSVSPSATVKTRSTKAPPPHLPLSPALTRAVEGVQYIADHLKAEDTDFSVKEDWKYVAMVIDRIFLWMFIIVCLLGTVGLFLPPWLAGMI
Result: > 30 µM

Task: Retrieve AC50 on Neuronal acetylcholine receptor subunit alpha-4 (Homo sapiens, UniProt P43681); query `COC(=O)[C@H](c1ccccc1Cl)N1CCc2sccc2C1`
Result: > 30 µM

Task: Retrieve AC50 on Neuronal acetylcholine receptor subunit alpha-4 (Homo sapiens, UniProt P43681); query `CCCOC(C(=O)OC1CCN(C)CC1)(c1ccccc1)c1ccccc1`
Result: > 30 µM

Task: Retrieve AC50 on Neuronal acetylcholine receptor subunit alpha-4 (Homo sapiens, UniProt P43681); query `Cc1ccc2c(-c3ccccc3)nc(=O)n(C(C)C)c2c1`
Result: > 30 µM

Task: Retrieve AC50 on Neuronal acetylcholine receptor subunit alpha-4 (Homo sapiens, UniProt P43681); query CC(=O)OCC(=O)[C@@]1(O)CC[C@H]2[C@@H]3CCC4=CC(=O)CC[C@]4(C)C3=CC[C@@]21C [ANECORTAVE ACETATE]
Result: > 10 µM
